# Tested on: MCF7
# ASSAY DETAILS: Antiproliferative activity against human MCF7 cells assessed as inhibition of cell viability incubated for 48 hrs by CCK8 method
# Format: functional, cell-based
# CONDITION DETAILS: MCF7, 48 h
pIC50: −log10 of the molar value.
ENDPOINT NAME: pIC50

Previously resolved entries follow.
{"STRUCTURE NOTATION": "Nc1nc(Nc2ccccc2)nc(-c2cc(Cl)ccc2O)n1", "RECORDED MEASUREMENT": 4.63}
{"STRUCTURE NOTATION": "Nc1nc(NCCc2ccccc2)nc(-c2cc(Cl)ccc2O)n1", "RECORDED MEASUREMENT": 4.54}
{"STRUCTURE NOTATION": "CCNc1nc(N)nc(-c2cc(Cl)ccc2O)n1", "RECORDED MEASUREMENT": 4.72}

a = O=C(NCCc1c[nH]c2ccc(Cl)cc12)c1cc(-c2cccnc2)n[nH]1
b = CN1CC[C@H](c2c(O)cc(O)c3c(=O)cc(-c4ccccc4Cl)oc23)[C@H](O)C1
c = O=C(Cn1cc(Br)c(=O)n(CC(=O)Nc2ccc(Br)cn2)c1=O)Nc1ccc(Br)cn1
d = CCCCNc1nc(N)nc(-c2cc(Cl)ccc2O)n1
Problem: Order the entries by their reported pIC50, beginning at the minimum. // format: requested-order list of labels
Solution: a, d, c, b

----------
# ASSAY DETAILS: Stability in human plasma assessed as compound remaining measured upto 4 hrs by HPLC analysis
# Format: ADME, cell-free
# CONDITION DETAILS: read-out: Stability
ENDPOINT NAME: remaining at 4 h

Previously resolved entries follow.
{"STRUCTURE NOTATION": "O=C(Cn1cc(Br)c(=O)n(CC(=O)Nc2ccc(Br)cn2)c1=O)Nc1ccc(Br)cn1", "remaining at 4 h": "> 90%"}
{"STRUCTURE NOTATION": "Nc1nc(Nc2ccccc2)nc(-c2cc(Cl)ccc2O)n1", "remaining at 4 h": "> 90%"}

Problem: Need remaining at 4 h, item Nc1nc(NCCc2ccccc2)nc(-c2cc(Cl)ccc2O)n1
Solution: > 90%

----------
Below is a list of entries, each paired with its recorded IC50 value.
# Tested on: CNE-2
# ASSAY DETAILS: Antiproliferative activity against human CNE-2 cells assessed as inhibition of cell viability incubated for 48 hrs by CCK8 method
# Format: functional, cell-based
# CONDITION DETAILS: CNE-2, 48 h
Answer format: numeric, µM implied, no suffix.

Previously resolved entries follow.
{"STRUCTURE NOTATION": "O=C(NCCc1c[nH]c2ccc(Cl)cc12)c1cc(-c2cccnc2)n[nH]1", "UNITS OF MEASURE": "µM", "IC50": 17.1}
{"STRUCTURE NOTATION": "O=C(Cn1cc(Br)c(=O)n(CC(=O)Nc2ccc(Br)cn2)c1=O)Nc1ccc(Br)cn1", "UNITS OF MEASURE": "µM", "IC50": 28.3}
{"STRUCTURE NOTATION": "CCNc1nc(N)nc(-c2cc(Cl)ccc2O)n1", "UNITS OF MEASURE": "µM", "IC50": 30.4}
{"STRUCTURE NOTATION": "CCCCNc1nc(N)nc(-c2cc(Cl)ccc2O)n1", "UNITS OF MEASURE": "µM", "IC50": 17}
{"STRUCTURE NOTATION": "Nc1nc(Nc2ccccc2)nc(-c2cc(Cl)ccc2O)n1", "UNITS OF MEASURE": "µM", "IC50": 34.5}

Problem: Need IC50, item CN1CC[C@H](c2c(O)cc(O)c3c(=O)cc(-c4ccccc4Cl)oc23)[C@H](O)C1
Solution: 0.12
